# System: UCD52 (cells of a triple-negative basal-like breast cancer xenograft)
# test_description: cell viability of combination (% of vehicle); higher = less cytotoxic
# details: 1 µM; 72 h; partner dose: 10 nM
property: cell viability of combination

[[record]]
compound = "CN1CCN(CCCN2c3ccccc3Sc3ccc(C(F)(F)F)cc32)CC1.Cl.Cl [Trifluoperazine 2HCl] + CN(C)C/C=C/C(=O)Nc1cc2c(Nc3ccc(F)c(Cl)c3)ncnc2cc1O[C@H]1CCOC1"
recorded_value = 73.1

[[record]]
compound = "C#Cc1cccc(Nc2ncnc3cc(OCCOC)c(OCCOC)cc23)c1.Cl [Erlotinib Hydrochloride] + CN(C)C/C=C/C(=O)Nc1cc2c(Nc3ccc(F)c(Cl)c3)ncnc2cc1O[C@H]1CCOC1"
recorded_value = 54.5

[[record]]
compound = "CC(C)(C)c1ccc(C(O)CCCN2CCC(C(O)(c3ccccc3)c3ccccc3)CC2)cc1 (stereo unspecified) [Terfenadine] + CN(C)C/C=C/C(=O)Nc1cc2c(Nc3ccc(F)c(Cl)c3)ncnc2cc1O[C@H]1CCOC1"
recorded_value = 59.1

[[record]]
compound = "COC(=O)c1ccc2c(c1)NC(=O)C2=C(Nc1ccc(N(C)C(=O)CN2CCN(C)CC2)cc1)c1ccccc1 [Nintedanib (BIBF 1120)] + CN(C)C/C=C/C(=O)Nc1cc2c(Nc3ccc(F)c(Cl)c3)ncnc2cc1O[C@H]1CCOC1"
recorded_value = 19.6

[[record]]
compound = "Cl.Cl.O=C1c2c(O)ccc(O)c2C(=O)c2c(NCCNCCO)ccc(NCCNCCO)c21 [Mitoxantrone HCl] + CN(C)C/C=C/C(=O)Nc1cc2c(Nc3ccc(F)c(Cl)c3)ncnc2cc1O[C@H]1CCOC1"
recorded_value = 32.2

[[record]]
compound = "C1=C\\COCc2cc(ccc2OCCN2CCCC2)Nc2nccc(n2)-c2cccc(c2)COC/1 [Pacritinib] + CN(C)C/C=C/C(=O)Nc1cc2c(Nc3ccc(F)c(Cl)c3)ncnc2cc1O[C@H]1CCOC1"
recorded_value = 47.9


----------
# Tested on: HCI01 (cells of a triple-negative basal-like breast cancer xenograft)
# test_description: cell viability (% of vehicle); higher = less cytotoxic
# details: 10 µM; 72 h
Measured cell viability, listed per entry.
property: cell viability

[[record]]
molecule = "CC(=O)C1CCC2C3CCC4=CC(=O)CCC4(C)C3CCC12C (configuration not stated) [Progesterone]"
recorded_value = 160

[[record]]
molecule = "Nc1nc(=O)c2ncn(COCCO)c2[nH]1 [Acyclovir]"
recorded_value = 103

[[record]]
molecule = "C=C1C(CO)C(O)CC1n1cnc2c(=O)nc(N)[nH]c21.O (configuration not stated) [Entecavir Hydrate]"
recorded_value = 110

[[record]]
molecule = "COc1c(C)c2c(c(O)c1CC=C(C)CCC(=O)O)C(=O)OC2 [Mycophenolic acid]"
recorded_value = 99.5

[[record]]
molecule = "NNC(=O)c1ccncc1.Nc1ccc(C(=O)O)c(O)c1 [Pasiniazid]"
recorded_value = 94.9

[[record]]
molecule = "Clc1ccc(COC(Cn2ccnc2)c2ccc(Cl)cc2Cl)c(Cl)c1 (configuration not stated) [Miconazole]"
recorded_value = 109

[[record]]
molecule = "COc1cc(C=CC(=O)CC(=O)C=Cc2ccc(O)c(OC)c2)ccc1O [Curcumin]"
recorded_value = 94.5


----------
# Tested on: HCI16 (cells of a triple-negative basal-like breast cancer xenograft)
# test_description: cell viability (% of vehicle); higher = less cytotoxic
# details: 10 µM; 72 h
I'd appreciate it if you marked entries label 1 when cell viability is lower than 100 and label 0 when it is not.

[[record]]
compound = "Br.Cc1ccc(Sc2ccccc2N2CCNCC2)c(C)c1"
assigned_label = "label 1"

[[record]]
compound = "NCCS(=O)(=O)O"
assigned_label = "label 0"

[[record]]
compound = "O=C1c2ccccc2C(=O)C1c1ccccc1"
assigned_label = "label 0"

[[record]]
compound = "CCCCCCCN(CC)CCCC(O)c1ccc(NS(C)(=O)=O)cc1.CCCCCCCN(CC)CCCC(O)c1ccc(NS(C)(=O)=O)cc1.O=C(O)C=CC(=O)O (stereo unspecified) [Ibutilide Fumarate]"
assigned_label = "label 0"

[[record]]
compound = "O=C1Cc2cc(CCN3CCN(c4nsc5ccccc45)CC3)c(Cl)cc2N1"
assigned_label = "label 1"

[[record]]
compound = "Cl.N=C(N)N [Guanidine HCl]"
assigned_label = "label 0"

[[record]]
compound = "CC(=O)NC1C(N=C(N)N)C=C(C(=O)O)OC1C(O)C(O)CO (stereo unspecified)"
assigned_label = "label 0"

[[record]]
compound = "Cl.Fc1ccc(C2CCNCC2COc2ccc3c(c2)OCO3)cc1 (stereo unspecified) [Paroxetine HCl]"
assigned_label = "label 1"

[[record]]
compound = "O=C(NN=Cc1ccc([N+](=O)[O-])o1)c1ccc(O)cc1 [Nifuroxazide]"
assigned_label = "label 1"

[[record]]
compound = "COC1C(OC(N)=O)C(O)C(Oc2ccc3c(O)c(NC(=O)c4ccc([O-])c(CC=C(C)C)c4)c(=O)oc3c2C)OC1(C)C.[Na+] (stereo unspecified) [Novobiocin Sodium]"
assigned_label = "label 0"

